The reported numbers originate from PubChem BioAssay (NCI).

assay: NCI Yeast Anticancer Drug Screen. Data for the rad18 strain (AID 177); settings: S. cerevisiae rad18 mutant growth inhibition; at 100.0 µM
This is part of a sample that, as a whole, favours compounds with a hit. Of some 79,000 tested, about 15% had one in any assay. Calls of active or inactive are those of the source. No stated cut-off is given here; in the data, active means growth inhibition above about 70%; inactive means the rest.
Outcome codes: active, inactive

{"Compound": "Cc1cc(N(CCOS(C)(=O)=O)CCOS(C)(=O)=O)ccc1C=Nc1ccc(-c2csc(-c3ccccc3)n2)c(Cl)c1", "Answer label": "active"}
{"Compound": "COC1CCC(O)C(/C=C/[N+](=O)[O-])C1 (stereo unspecified)", "Answer label": "active"}
{"Compound": "CCCC(=O)Oc1ccc(/C=N/NC(N)=S)nc1", "Answer label": "inactive"}
{"Compound": "O=C(O)c1ccc(N2C(=O)C=CC2=O)cc1", "Answer label": "active"}
{"Compound": "CC(=O)ON=C1C=CC(=C(C#N)c2ccc(Cl)cc2)C=C1", "Answer label": "inactive"}
{"Compound": "COC(=O)Oc1cc(Cl)c(Cl)cc1Cl", "Answer label": "inactive"}
{"Compound": "Cc1ccc2nc(-c3cccc([N+](=O)[O-])c3)oc(=O)c2c1", "Answer label": "inactive"}
{"Compound": "Cc1c2cc[n+](Cc3ccc(I)cc3)cc2c(C)c2c1[nH]c1ccccc12", "Answer label": "active"}
{"Compound": "CNC(=O)OCc1c(COC(=O)NC)c(-c2ccc(Cl)c(Cl)c2)n2c1SCC2", "Answer label": "active"}
{"Compound": "O=C(O)CNC(=S)Nc1ccccc1", "Answer label": "active"}
{"Compound": "CCN(CC)CCN(C)CCc1ccc(Br)cc1", "Answer label": "active"}

====

Below, each of the compounds is paired with its reported growth inhibition value.
test: NCI Yeast Anticancer Drug Screen. Data for the rad50 strain (AID 155);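 further: 0% = growth of vehicle-only cultures of the same strain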; conditions: S. cerevisiae rad50 strain growth inhibition; at 33.0 µM; active compounds read high
The panel holds about 79,000 compounds, 15% with a hit somewhere; the sample as a whole holds those more often.
Reported metric: growth inhibition (%)

{"Compound": "OC1(c2ccccc2)CCCc2ccc(Cl)cc21 (configuration not stated)", "Reported metric": "growth inhibition", "Endpoint result": 50}
{"Compound": "NC(=O)C(=O)NNc1ccccc1", "Reported metric": "growth inhibition", "Endpoint result": 75}
{"Compound": "CC(=O)ON=C1C=CC(=C(C#N)c2ccc(Cl)cc2)C=C1", "Reported metric": "growth inhibition", "Endpoint result": 9}
{"Compound": "CCc1c(Cl)c(C)cc(O)c1Cl", "Reported metric": "growth inhibition", "Endpoint result": 23}
{"Compound": "c1ccc2cc(NCNc3ccc4ccccc4c3)ccc2c1", "Reported metric": "growth inhibition", "Endpoint result": 0}
{"Compound": "O=C(/C=C\\c1cccc(C(F)(F)F)c1)c1ccccc1", "Reported metric": "growth inhibition", "Endpoint result": -4}
{"Compound": "CCO/C(C)=C(/C#N)C(N)=S", "Reported metric": "growth inhibition", "Endpoint result": 0}
{"Compound": "CCCCOCn1c(=O)[nH]c(=O)c2cc(Br)ccc21", "Reported metric": "growth inhibition", "Endpoint result": -24}
{"Compound": "CC(C)(C)N=C(NO)c1ccccc1", "Reported metric": "growth inhibition", "Endpoint result": 14}
{"Compound": "COC1CCC(O)C(/C=C/[N+](=O)[O-])C1 (configuration not stated)", "Reported metric": "growth inhibition", "Endpoint result": 99}
{"Compound": "COC(=O)/C=C(/CC(=O)OC)C(=O)OC", "Reported metric": "growth inhibition", "Endpoint result": -4}
{"Compound": "CCCCc1ccc(-n2c(C)c(COC(=O)NC)c(COC(=O)NC)c2C)cc1", "Reported metric": "growth inhibition", "Endpoint result": 93}
{"Compound": "C[Si](C)(C)/C=C/CCNC(C#N)c1ccccc1 (configuration not stated)", "Reported metric": "growth inhibition", "Endpoint result": 10}
{"Compound": "CCCCNC1CCC2(SCCS2)c2[nH]c3ccccc3c21 (configuration not stated)", "Reported metric": "growth inhibition", "Endpoint result": 3}
{"Compound": "Cc1ccc(NC(=O)/C(CC2N=c3c(ccc4c(O)c5ccccc5c(O)c34)=NC2O)=N/NC(C)(C)C)cc1 (configuration not stated)", "Reported metric": "growth inhibition", "Endpoint result": 54}
{"Compound": "CC(O)=NC(Cc1ccc2ccccc2c1)C(O)=NC(Cc1ccc(Cl)cc1)C(O)=NC(Cc1c[nH]c2ccccc12)C(O)=NC(CO)C(O)=NC(Cc1ccc(O)cc1)C(O)=NC(CCCN=C(N)N)C(O)=NC(CC(C)C)C(O)=NC(CCCN=C(N)N)C(=O)N1CCCC1C(O)=NC(C)C(=N)O (configuration not stated)", "Reported metric": "growth inhibition", "Endpoint result": 3}
{"Compound": "COc1cc(C2SCC(=O)N2c2ccc(-c3ccc(-n4c(-c5ccccc5)nc5ccccc5c4=O)cc3)cc2)ccc1O (configuration not stated)", "Reported metric": "growth inhibition", "Endpoint result": 8}
{"Compound": "C#CCN(Cc1ccc2nc(N)[nH]c(=O)c2c1)c1ccc(C(=O)NC(CCC(=O)O)C(=O)O)cc1 (configuration not stated)", "Reported metric": "growth inhibition", "Endpoint result": 69}
{"Compound": "c1ccc2c(c1)sc1c3cnccc3ccc21", "Reported metric": "growth inhibition", "Endpoint result": 74}
{"Compound": "Nc1ccc(F)cc1S", "Reported metric": "growth inhibition", "Endpoint result": 61}
{"Compound": "Cc1nc2c(Br)cc(Br)cc2c(=O)n1-c1ccccc1NC1OCC(O)C(O)C1O (configuration not stated)", "Reported metric": "growth inhibition", "Endpoint result": 63}
{"Compound": "CN(C)c1ccc(C2CC(C)(O)Oc3cc4c(cc32)OCO4)cc1 (configuration not stated)", "Reported metric": "growth inhibition", "Endpoint result": 12}

====

assay: NCI Yeast Anticancer Drug Screen. Data for the rad50 strain (AID 155);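 further: 0% = growth of vehicle-only cultures of the same strain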; conditions: S. cerevisiae rad50 strain growth inhibition; at 3.7 µM
The panel holds about 79,000 compounds, 15% with a hit somewhere; the sample as a whole holds those more often. The source made the active and inactive calls. No stated cut-off is given here; in the data, active means growth inhibition above about 70%; inactive means the rest.
Outcome codes: True (active), False (inactive)

{"Molecule": "O=C1c2ccccc2C(=O)N1CCCC(=O)n1cc(F)c(=O)[nH]c1=O", "Answer label": "False"}
{"Molecule": "COC1CCC(O)C(/C=C/[N+](=O)[O-])C1 (stereo not drawn)", "Answer label": "True"}
{"Molecule": "O=C(C[n+]1ccc2ccccc2c1)c1ccc2ccccc2c1", "Answer label": "False"}
{"Molecule": "CN(C)/C=C/c1nnc([N+](=O)[O-])s1", "Answer label": "False"}
{"Molecule": "O=C1CC(=O)c2ccccc21", "Answer label": "False"}
{"Molecule": "Cc1cc2cc3cc(C)c(N)cc3nc2cc1N", "Answer label": "False"}
{"Molecule": "CCn1c(O)c(C=Nc2ccccc2)s/c1=N/Nc1nc(-c2ccccc2)cs1", "Answer label": "False"}
{"Molecule": "Oc1ccc2c(c1)C(O)CCCC2 (stereo not drawn)", "Answer label": "False"}
{"Molecule": "c1ccc2c(c1)sc1c3cnccc3ccc21", "Answer label": "False"}
{"Molecule": "NC1=NNC2(C(N)=N1)c1ccccc1-c1ccccc12", "Answer label": "False"}
{"Molecule": "COc1ccc(C(=O)C(CN(C)C)CN(C)C)cc1", "Answer label": "False"}
{"Molecule": "CCCCOCn1c(=O)[nH]c(=O)c2cc(Br)ccc21", "Answer label": "False"}
{"Molecule": "Nc1nc2ccc(NCc3ccc(C(=O)NC(CCC(=O)O)C(=O)O)cc3)cc2c(=O)[nH]1 (stereo not drawn)", "Answer label": "False"}

====

Below, each of the compounds is paired with its reported growth inhibition value.
assay: NCI Yeast Anticancer Drug Screen. Data for the rad14 strain (AID 159);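 further: 0% = growth of vehicle-treated control cultures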; conditions: S. cerevisiae rad14 strain growth inhibition; at 3.7 µM; active compounds read high
This is part of a sample that, as a whole, favours compounds with a hit. Of some 79,000 tested, about 15% had one in any assay.
Reported metric: growth inhibition (%)

{"Compound": "Cc1cc(C)nc(NS(=O)(=O)c2ccc(Nc3c4ccccc4nc4c(C(=O)NCCO)cccc34)cc2)n1", "Reported metric": "growth inhibition", "Endpoint result": 1}
{"Compound": "CC(C)CN(CC(C)C)C(=O)c1ccc(Cl)c(Cl)c1", "Reported metric": "growth inhibition", "Endpoint result": -1}
{"Compound": "COc1ccc(C(=O)C(CN(C)C)CN(C)C)cc1", "Reported metric": "growth inhibition", "Endpoint result": -8}
{"Compound": "Cc1ccc2c(c1)C1(SC(C)C(=O)N1c1ccc(Cl)cc1)C(=O)N2 (stereo unspecified)", "Reported metric": "growth inhibition", "Endpoint result": 3}
{"Compound": "COc1ccc(/C=C2\\NC(=S)N(/C=C3\\C(=O)Oc4ccccc4C3=O)C2=O)cc1", "Reported metric": "growth inhibition", "Endpoint result": 0}
{"Compound": "O=C(CC(C(=O)O)N1CCOCC1)c1ccccc1 (stereo unspecified)", "Reported metric": "growth inhibition", "Endpoint result": -5}
{"Compound": "O=C(NNc1ccccc1)c1ccc(Cl)c(Cl)c1", "Reported metric": "growth inhibition", "Endpoint result": -2}
{"Compound": "Nc1nc2ccc(NCc3ccc(C(=O)NC(CCC(=O)O)C(=O)O)cc3)cc2c(=O)[nH]1 (stereo unspecified)", "Reported metric": "growth inhibition", "Endpoint result": -19}
{"Compound": "CCc1ccc2c(c1)N(CC(C)CN(C)C)c1ccccc1S2 (stereo unspecified)", "Reported metric": "growth inhibition", "Endpoint result": -4}
{"Compound": "Oc1ccc(-c2nc(-c3ccc(F)cc3)c(-c3ccc4ccccc4n3)[nH]2)cc1", "Reported metric": "growth inhibition", "Endpoint result": -49}
{"Compound": "COc1cc(/C=N/Nc2nnc3c4ccccc4c4ncccc4c3n2)cc(OC)c1OC", "Reported metric": "growth inhibition", "Endpoint result": 2}
{"Compound": "CN(C)[C@@H]1C(=O)C(C(N)=O)=C(O)[C@@]2(O)C(=O)C3=C(O)c4c(O)cccc4C[C@H]3C[C@@H]12", "Reported metric": "growth inhibition", "Endpoint result": -5}
{"Compound": "O=C(c1ccc([N+](=O)[O-])cc1)C1N=NCC1c1ccccc1 (stereo unspecified)", "Reported metric": "growth inhibition", "Endpoint result": 2}
{"Compound": "CCCOC(=O)C(F)C(Br)C(=O)OCCC (stereo unspecified)", "Reported metric": "growth inhibition", "Endpoint result": 67}
{"Compound": "c1ccc2c(OCC3CO3)cccc2c1 (stereo unspecified)", "Reported metric": "growth inhibition", "Endpoint result": -3}
{"Compound": "Oc1ccc2c(c1)C(O)CCCC2 (stereo unspecified)", "Reported metric": "growth inhibition", "Endpoint result": 13}
{"Compound": "COc1ccc(/C=C/c2sc3ccccc3[n+]2CCCCI)cc1OC", "Reported metric": "growth inhibition", "Endpoint result": -3}
{"Compound": "COC(=O)CCC(NC(=S)N/N=C(\\C)c1ccccn1)C(=O)OC (stereo unspecified)", "Reported metric": "growth inhibition", "Endpoint result": -3}
{"Compound": "CC12C(=O)OC(=O)C(c3ccccc31)c1ccccc12", "Reported metric": "growth inhibition", "Endpoint result": -9}
{"Compound": "OCc1ccccc1Cc1ccccc1", "Reported metric": "growth inhibition", "Endpoint result": -1}
{"Compound": "CC1OC(O[C@H]2/C=C/C=C/C=C/C=C/C=C/C=C/C=C/[C@H](C)[C@@H](O)[C@@H](C)[C@H](C)OC(=O)C[C@H](O)C[C@H](O)CC[C@@H](O)[C@H](O)C[C@H](O)C[C@]3(O)C[C@H](O)[C@@H](C(=O)O)[C@H](C2)O3)C(O)C(N)C1O (stereo partly specified)", "Reported metric": "growth inhibition", "Endpoint result": 23}
